Every entry's value here was drawn from the supplement of paper PMC11417369.

tested on: PfAP2-I AP2 domain 3 (GST-tagged); test: gcPBM binding intensity (ln(normalized median fluorescence intensity)); higher = stronger DNA binding
The full ranking holds about 25,000 sequences; the median of “ln(normalized median fluorescence intensity)” is about 7.9, and the highest 2% start at about 11. This excerpt belongs to a sample that is enriched for the highest values.
Can you tell me gcPBM binding intensity (ln) for the items I'm about to list?
Output spec: single numeric token, no unit.

Fill blank: measured gcPBM binding intensity (ln) of the sequence TTCTTATTTGTACTAGTGCAATAGAAAATAAATAAA [GTGCAC_site9731] is ____.
10.9

Item: TTTTTTTTTTTGTGTGCATGTGCTAGGAAAGGTAGG [TGCATGCA_site330]
8.85

Item: AGTAGGCATATTGGTTGTACAAAAAAATTATGCACC [XGTACX_site8925]
11.2

Item: TATTTCTGATTATTTTGTACACATTATATATAATGC [XGTACX_site6990]
8.04

Item: GTAGGCATTAAAAAATGTACAAAATATTATGAATTG [XGTACX_site1615]
7.65

Item: TTATAATTTTTGAGCACACACAAGCATATATATATA [CACACA_site1798]
9.47

Item: ATTAAAATTTAAAATACACACACATATATATAATAT [CACACA_site8612]
7.91

Item: TATAAATAGATATATACACACTTGTGCAGAATATTA [CACACA_site7112]
9.37

Item: TATAAATATTTATGTACACACATATACATGTTGAAT [CACACA_site5684]
7.95

Item: TTATGTTCATTATATGCACACATATATATAAATGTA [CACACA_site8947]
9.11

Item: TTTGTGTATATATAATGTACATTATATTTTTATTAT [XGTACX_site6506]
8.13

Item: AAAATTTAATATAATGCACACATAAAAAAAAAATCA [CACACA_site7882]
11.2

Item: ATTAATTAAAATAGTTGTACAATCAAAAAAACAAAA [XGTACX_site7660]
8.15

Item: AAAATTTAATATAATGCACACATAAAAAAAAAAAAT [CACACA_site8425]
11.1

Item: TTAACGTAAAATATAGTGCATAGTATCATATTGATA [GTGCAC_site9527]
9.5

Item: TTAATATTAATATATTGTACATATATGCACATATTT [XGTACX_site6569]
9.1

Item: TATTATAATAAAATATGTACACACATACACACATAT [XGTACX_site2360]
7.98

Item: TATTACATACATATCTGTACATATATTAATGCACAA [XGTACX_site3315]
11.6

Item: TATTTTAAAGAGAAAACATGCATTATATAGAACATT [TGCATGCA_site328]
7.93

Item: ATAAAGGAATTTTATACACACAACATATATATATAT [CACACA_site2861]
9.45

Item: ATTTATAAAATTAATGCACACATCAGCATTTATAAA [CACACA_site1025]
11.3

Item: ATTTCTCAATCGTAATGTACAAAAAAAAGGGAAAAG [XGTACX_site2781]
7.9

Item: TTTGTTATATTTAATACACACATATTATAAACCCAT [CACACA_site3716]
7.95

Item: TTGCCCCAGGAGTTCACACACATAATAGATTGTCAC [CACACA_site726]
7.79

Item: TTTATTTATGTGTGGGTGCATATACGTATGATGTAT
11

Item: ATATTATTATAAACTTCACACATTTTATGGGTTTTT [CACACA_site4631]
7.49

Item: CACATATATATGTGTGCATGTTGTATTATATATTTA [TGCATGCA_site632]
8.69

Item: ATATGAAACATGAAGGTGCATAATGTGTATATTTAT
11.3

Item: TTTTTTTTTTTTTTTACACACTGCATACAAGAAAAA [CACACA_site5642]
8.54

Item: TAAATCATTTATTAAGTGCAATATTCTTTTTGAGAT
10.3

Item: ATATAATATCTGTATACACACATATTATATAATATT [CACACA_site5940]
7.86

Item: ATATATATATATTTCGCACACATAATCTTATTAAAT [CACACA_site2579]
9.22

Item: AATTTAATATAATGCACACATAAAAAAAAAATCAAA [CACACA_site1]
10.9

Item: TTTCACATATATATGGTGCATATTTTATGTGTAAAT [GTGCAC_site9937]
9.95

Item: TTTATCAAAATAAATGCACACAAATTGCACATATCT [CACACA_site8281]
10.3

Item: AAATTAAAATATAATACACACATAAAAAAAAAATCA [CACACA_site5918]
7.68

Item: TGAACATATTAAAATTGTACATATGCACAATATGTA [XGTACX_site6801]
8.53

Item: TTTTTTCTTAAAATTTGTACATAGTGCAATTTTTTT [XGTACX_site5509]
9.5

Item: AATATTATAAATGATACACACTTAAAATACAGACAC [CACACA_site8868]
8.19
